Tested on: A498 renal
methodDescription: NCI tumour cell line growth inhibition, 48 h
Provide the reported TGI of each item.
Answers are plain numbers, in µM.

>>> df
                                   molecule  measvalue
0  O=c1[nH]c2ccc([N+](=O)[O-])c(Cl)c2c2ccccc12       80.2
1  C[C@]12CCC3=NCCN3C1=CC[C@@H]1[C@@H]2CC[C@@]2(C)[C@H]1CC[C@]2(C)O       77.6
2  COc1c(O)c2c3c(c1OC)-c1ccccc1CC3N(S(=O)(=O)c1ccc(C)cc1)CC2 (stereo not given)       5.54
3  Cc1ccc(-n2cc(-c3ccc(Cl)cc3)c3c(=N)n(N)cnc32)cc1       29.5

Next:
q: What value of TGI has been recorded for this entry: CC(C)=CCc1c2c(c(O)c3c(=O)c4c(oc13)-c1ccc(O)cc1OC4C=C(C)C)C=CC(C)(C)O2 (stereo not given)
a: 34.9

* * *

Tested on: CCRF-CEM leukemia
methodDescription: NCI tumour cell line growth inhibition, 48 h; in the data active = GI50 below about 0.43 µM; inactive = the rest
Just give me one of these, please: active, inactive

                                   molecule  classification
0  COc1cc(OC)cc(-c2ccc(-c3ccc(C(=N)N)cn3)s2)c1        inactive

q: // outcome(item) with item = `COc1ccc(/C=C\c2cc(OC)c(OC)c(OC)c2)c(NS(=O)(=O)c2ccc(C(C)(C)C)cc2)c1O`
a: inactive

q: Continue with `CC(=O)[O-].[Mn+3].[O-]c1ccc(Cl)cc1C=NCCN=Cc1cc(Cl)ccc1[O-]`
a: inactive

q: Continue with COc1c(O)c2c3c(c1OC)-c1ccccc1CC3N(S(=O)(=O)c1ccc(C)cc1)CC2 (stereo not drawn)
a: inactive

q: Continue with `O=C(OC[C@@H]1CO1)c1cccc2c(=O)c3ccccc3[nH]c12`
a: active

q: Continue with `COc1ccc(/C(C)=C(\c2ccc(Cl)cc2)c2ccc(OCCN3CCCCCC3)cc2)cc1F`
a: inactive

q: Continue with `COc1cc(/C=C\c2cc(OC)c(OC)c(OC)c2)cc(NS(=O)(=O)c2ccc(Cl)cc2)c1OC`
a: active

q: Continue with `Cn1ccnc1C(=O)/C=C/c1ccc(C(=O)Nc2c(F)c(F)c(F)c(F)c2F)cc1`
a: inactive

q: Continue with `C=CCN=C(N/N=C/c1ccc([N+](=O)[O-])o1)NS(=O)(=O)c1cc(C(=O)Nc2ccccc2)c(Cl)cc1SCC(N)=O`
a: inactive

q: Continue with `[Cl-].[Gd+3].[O-]/N=C(\c1ccccc1)c1ccccn1.[O-]/N=C(\c1ccccc1)c1ccccn1.[O-]/N=C(\c1ccccc1)c1ccccn1`
a: inactive

* * *

Provide the reported TGI of each item.
Test system: SN12C renal
methodDescription: NCI tumour cell line growth inhibition, 48 h

In [3]: df
Out[3]:
                                   compound  measvalue
0  COc1ccc(-c2cc(-c3ccccc3)nc(NCCNc3ccnc4cc(Cl)ccc34)n2)cc1     3.3 µM
1  COC(=O)[C@]1(C)CCC[C@]2(C)[C@@H]1CCC13C[C@@H](C=CO1)[C@@H](C)CC32O (stereo not given in full)   > 100 µM
2        C#CCOC(=O)C(=[N+]=[N-])C(=O)CC(C)C    > 10 µM
3  CCCCCCCc1ccc(-c2nnc(N=Nc3ccc(OCCCCC)cc3)s2)s1   > 100 µM
4  [Cl-].[Gd+3].[O-]/N=C(\c1ccccc1)c1ccccn1.[O-]/N=C(\c1ccccc1)c1ccccn1.[O-]/N=C(\c1ccccc1)c1ccccn1   > 100 µM

For every item in the list below, what is its measured TGI?
1. CCOC(=O)C1C(c2ccc(OC)cc2)c2c([nH]n(-c3ccccc3)c2=O)CC1(C)O (stereo not given)
2. Clc1cc2ncn(C3CCCCO3)c2cc1Cl (stereo not given)

a:
["> 100 µM", "> 100 µM"]

For every item in the list below, what is its measured TGI?
1. O=C(c1ccccc1)C(Br)C(Br)c1ccccc1 (stereo not given)
2. O=C1CCS/C(=N/S(=O)(=O)c2ccc(N3N=C4c5ccccc5CC4C3c3cccs3)cc2)N1Cc1ccccc1 (stereo not given)
3. CC[C@]1(Cc2ccc(OC)c(OC)c2)C=[N+]([O-])O[C@H](OC2CCCC2(c2ccccc2)c2ccccc2)[C@@H]1OC(=O)C(C)(C)C (stereo not given in full)
4. O=c1cccccc1[O-].O=c1cccccc1[O-].O=c1cccccc1[O-].[Sm+3]
5. COC(=O)c1ccccc1C1CN=NC12Cc1c(C)ccc(C)c1C2=O (stereo not given)
6. COC(=O)c1sc(=NC(=S)N2CCCCC2)sc1C(=O)OC
7. NC(N)=NCCCC(NC(=O)c1c2ccccc2nc2ccccc12)C(=O)O (stereo not given)

a:
1. 22.6 µM
2. 38.3 µM
3. > 22.1 µM
4. > 100 µM
5. > 100 µM
6. > 100 µM
7. > 100 µM

For every item in the list below, what is its measured TGI?
1. N#CC(NC(=O)CCl)=C(Cl)Cl
2. COc1cc(OC)cc(-c2ccc(-c3ccc(C(=N)N)cn3)s2)c1
3. NNC(=O)N/N=C1\CN(c2ccc(Cl)cc2Cl)C(=O)C(=O)C1c1nc2ccccc2o1 (stereo not given)
4. CCc1cc2c(c3c1CCCC3=O)CC1(C2)Cc2cc(CC)c3c(c2C1)C(=O)CCC3
5. O=C(O)/C=C/c1ccncc1
6. O=C(N/N=C/c1ccc(F)cc1)c1ccc(C(F)(F)F)nc1Nc1cccc(C(F)(F)F)c1

a:
["3.26 µM", "3.8 µM", "> 100 µM", "> 100 µM", "> 100 µM", "7.73 µM"]

* * *

Tested on: CCRF-CEM leukemia
methodDescription: NCI tumour cell line growth inhibition, 48 h
reportedMetric: log10(TGI) (log10 of the value in µM)
Base-10 log of TGI, unit µM.

Study these solved cases before continuing.
molecule	reportedMetric	measValue
Clc1ccc2c(NCCCN3CCN(c4nc(N5CCOCC5)nc5ccccc45)CC3)ccnc2c1	log10(TGI)	0.76
CCCCCCCCCCCCC1N=C(N)NC2(CCCO2)C1C(=O)OC (centres undefined)	log10(TGI)	0.77
CN(/N=C\c1ccc2ccccc2c1)C1=NCCCN1	log10(TGI)	1.69
O=C1CCS/C(=N/S(=O)(=O)c2ccc(N3N=C4c5ccccc5CC4C3c3cccs3)cc2)N1Cc1ccccc1 (centres undefined)	log10(TGI)	1.88
Clc1ccc(C2=NCON=C2c2ccc(Cl)cc2)cc1	log10(TGI)	1.73

For every item in the list below, what is its measured log10(TGI)?
1. C=CCN=C(N/N=C/c1ccc([N+](=O)[O-])o1)NS(=O)(=O)c1cc(C(=O)Nc2ccccc2)c(Cl)cc1SCC(N)=O
2. Cc1cc(=O)n2nc(CSc3nnc(Sc4cc(O)ccc4O)s3)sc2n1
3. CCCCCCCCCCCCC1N=C(N)N2CCCC2=C1C(=O)OC (centres undefined)
4. N#CC(NC(=O)CCl)=C(Cl)Cl

a:
[1.44, 1.69, 0.59, 0.25]

* * *

Tested on: SNB-19 CNS
methodDescription: NCI tumour cell line growth inhibition, 48 h
reportedMetric: TGI

For every item in the list below, what is its measured TGI?
1. Cc1ccc(NCCN(C)C)c2c(=O)c3cc(O)ccc3sc12
2. Nc1ccc(C(=O)/C=C/c2ccccc2O)cc1
3. c1cc2c(cc1[C@@H]1OC[C@@H]3[C@H]1CO[C@H]3c1ccc3c(c1)OCO3)OCO2
4. CCCCCCCc1ccc(-c2nnc(N=Nc3ccc(OCCCCC)cc3)s2)s1
5. Cn1c(NC(=O)NC23CC4CC(CC(C4)C2)C3)nc2ccccc21
6. Cc1cc(C)n2c(nc3ccccc32)c1C#N
7. O=C(O)Cn1ccc(=O)c2cc([N+](=O)[O-])ccc21

a:
16.1 µM
> 100 µM
> 100 µM
> 100 µM
> 100 µM
> 100 µM
> 100 µM

* * *

Test system: NCI-H522 lung
methodDescription: NCI tumour cell line growth inhibition, 48 h
reportedMetric: TGI

Study these solved cases before continuing.
In [3]: df
Out[3]:
                            structuresmiles  reportedmetric  measvalue
0  CC(C)[C@@H]1NC(=O)[C@@H]2N=C(O[C@H]2C)[C@H](C(C)C)NC(=O)C2N=C1O[C@H]2C             TGI   > 100 µM
1  CCN(CC)CCOc1ccc2c(C)c(C(=O)OC)oc2c1C(=O)/C=C/c1ccc(OC)cc1             TGI    15.2 µM
2  COC(=O)c1ccc2[nH]c(O)c(C(=Nc3ccc(N(C)C(=O)CN4CCN(C)CC4)cc3)c3ccccc3)c2c1             TGI    4.41 µM

For every item in the list below, what is its measured TGI?
1. CN(C)c1ccc(N=C2C=CC(=C(C#N)C#N)c3ccccc32)cc1
2. OCC#Cc1ccccc1C#Cc1ccc(C#Cc2ccccc2)cc1
3. Cc1cc2occ(S(=O)(=O)NC(=O)Nc3ccc(Cl)cc3)c(=O)c2c(=O)o1
4. COc1cc(/C=C2/Oc3c(OC)cccc3C2=O)ccc1O
5. CN(C)c1ccc(O[Si](Oc2ccc(N(C)C)cc2)(Oc2ccc(N(C)C)cc2)Oc2ccc(N(C)C)cc2)cc1
6. COc1cc2c(cc1OC)C(=O)N(c1ccc(OCCN3CCCC3)cc1)C2=O

a:
0.305 µM
> 100 µM
> 100 µM
> 100 µM
> 100 µM
> 100 µM

Data origin: PubChem BioAssay (NCI)
